The compounds listed here are annotated with their log10 Henry constant (atm·m³/mol).

COMPOUND	log10 Henry constant (atm·m³/mol)
Cc1cc(C)c(N)cc1C	-5.61
Clc1ccc(-c2ccc(Cl)c(Cl)c2)cc1	-4
Clc1ccc(Cl)c(Cl)c1Cl	-3.12
O=C(O)C(Cl)(Cl)Cl	-7.87
CCCCOCCO	-5.8
ClC1(Cl)C2(Cl)C3(Cl)C4(Cl)C(Cl)(Cl)C5(Cl)C3(Cl)C1(Cl)C5(Cl)C24Cl (stereo not drawn)	-3.09
O=C(O)C(Br)(Br)Br	-8.48
C=CCO	-5.3
C#CCBr	-2.95
Cc1cccc2c(C)cccc12	-3.46
N#Cc1c(Cl)c(Cl)c(Cl)c(C#N)c1Cl	-5.7
CN(C)C=O	-7.13
N#Cc1cccnc1	-6.56
CCCC(C)O (stereo not drawn)	-4.83
O=C(O)CF	-7.91
Clc1cccc(-c2c(Cl)c(Cl)c(Cl)c(Cl)c2Cl)c1Cl	-4.85
CCCCCCCl	-1.62
O=C(O)C(F)(F)F	-6.95
ClC(Br)Br	-3.11
Cc1cccnc1C	-5.14
FC(F)(F)C(Cl)Cl	-1.59
OC1CCCCC1	-5.36
CCCCCCC(=O)OCC	-3.3
N#Cc1ccncc1	-6.03
C1CCNCC1	-5.35
c1ccc2c(c1)ccc1ccccc12	-4.37
CCc1cccc(C)c1N(C(=O)CCl)C(C)COC (stereo not drawn)	-8.05
CN1CCCC1=O	-8.49
c1ccc2c(c1)ccc1c3ccccc3ccc21	-5.28
CCCCOCCOCCO	-8.14
CCOC(=O)CC(SP(=S)(OC)OC)C(=O)OCC (stereo not drawn)	-8.31
CCC#N	-4.43
Clc1cc(-c2c(Cl)cccc2Cl)c(Cl)c(Cl)c1Cl	-4.41
COO	-5.34
CC(Cl)(Cl)Cl	-1.76
CC(C)O	-5.09
Clc1cc(Cl)cc(-c2cc(Cl)c(Cl)c(Cl)c2Cl)c1	-4.7
CCC(=O)CC	-4.3
CCCCCCCCOC(=O)CCCCC(=O)OCCCCCCCC	-6.36
CN(C)C1CCCCC1	-4.63
CCOC(C)(C)C	-2.79
Cc1cccc(C)n1	-4.98
O=C(O)CCl	-8.03
COCC(C)O (stereo not drawn)	-6.04
Clc1cc(Cl)c(Cl)cc1Cl	-3
C=CCl	-1.56
CCc1ccncc1	-5.07
ClCCCCl	-3.01
CC(=O)C(C)=O	-4.88
Cc1ccc(C)c(O)c1	-5.95
O=C(Cl)C(Cl)(Cl)Cl	-3.29
BrCBr	-3.09
COC=O	-3.65
Oc1ccccc1	-6.48
c1cc2ccc3ccc4ccc5cccc6c(c1)c2c3c4c56	-6.48
CCN	-4.91
c1ccc2c(c1)-c1cccc3cccc-2c13	-5.05
CC(=O)C1CCCCC1	-4.47
c1ccsc1	-2.64
CC(C)c1ccccc1	-1.94
O=C(O)C(Cl)Cl	-8.08
Cc1ccccc1N	-5.7
FC(F)(F)C(F)(F)F	1.31
Clc1ccc(Cl)c(-c2c(Cl)c(Cl)cc(Cl)c2Cl)c1Cl	-4.62
Clc1cccc(Cl)c1Cl	-2.9
COCC(C)N(C(=O)CCl)c1c(C)csc1C (stereo not drawn)	-7.09
CSSC	-2.92
Clc1ccc(-c2ccc(Cl)c(Cl)c2Cl)c(Cl)c1	-4.18
CCc1ccc(O)cc1	-6.11
CCOP(=S)(OCC)Oc1ccc([N+](=O)[O-])cc1	-6.53
Nc1cccc(Cl)c1	-6
CC(C)CC(C)N (stereo not drawn)	-4.51
COc1ccccc1O	-5.92
